Data provenance is the supplement of paper PMC11732987.

System Name: USP4 (UniProt Q13107)
Sequence (whole entry): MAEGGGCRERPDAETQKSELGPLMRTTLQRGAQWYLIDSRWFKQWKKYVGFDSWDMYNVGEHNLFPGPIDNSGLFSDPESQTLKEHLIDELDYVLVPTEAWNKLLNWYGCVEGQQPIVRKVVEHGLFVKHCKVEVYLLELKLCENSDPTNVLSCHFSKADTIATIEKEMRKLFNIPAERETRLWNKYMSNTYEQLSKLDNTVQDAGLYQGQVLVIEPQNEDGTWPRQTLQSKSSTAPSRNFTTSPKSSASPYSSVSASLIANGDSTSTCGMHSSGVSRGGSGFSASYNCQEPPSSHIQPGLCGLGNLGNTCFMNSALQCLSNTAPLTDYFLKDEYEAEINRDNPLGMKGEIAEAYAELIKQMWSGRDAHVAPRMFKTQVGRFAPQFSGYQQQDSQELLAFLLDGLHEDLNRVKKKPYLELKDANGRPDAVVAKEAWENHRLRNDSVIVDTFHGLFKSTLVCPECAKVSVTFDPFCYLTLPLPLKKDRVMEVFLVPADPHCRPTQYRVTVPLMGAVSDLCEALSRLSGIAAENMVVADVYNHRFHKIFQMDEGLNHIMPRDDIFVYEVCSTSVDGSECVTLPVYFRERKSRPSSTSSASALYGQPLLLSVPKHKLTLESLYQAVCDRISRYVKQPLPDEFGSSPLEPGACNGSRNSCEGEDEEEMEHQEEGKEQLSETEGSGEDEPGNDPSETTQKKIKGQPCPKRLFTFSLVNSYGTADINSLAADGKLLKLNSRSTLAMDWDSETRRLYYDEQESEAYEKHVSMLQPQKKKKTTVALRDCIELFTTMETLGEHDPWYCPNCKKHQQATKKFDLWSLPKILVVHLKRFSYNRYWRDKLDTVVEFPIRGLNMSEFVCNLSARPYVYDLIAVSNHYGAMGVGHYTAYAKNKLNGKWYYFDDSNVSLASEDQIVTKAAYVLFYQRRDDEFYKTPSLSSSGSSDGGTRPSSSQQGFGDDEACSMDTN
Assay Remarks: log2 ratio of Biotin-Ahx-Ub-VS probe labelling (fragment/DMSO); higher = less target engagement (more negative = stronger competition), active = hit call of the paper (q ≤ 0.05, log2 ratio ≤ -1)
Conditions: compound concentration: 200 uM; treatment time: 3 h
Result category, one only: active, inactive

Check out these entries, answers already filled in.
- Molecule: "CCN(Cc1ccc(C#N)cc1F)C(=O)CCl"
  Label Class: "inactive"
- Molecule: "N#Cc1ccc(Cl)cc1NC(=O)CCl"
  Label Class: "inactive"
- Molecule: "O=C(CCl)Nc1ccc2c(c1)OC(F)(F)O2"
  Label Class: "inactive"
- Molecule: "Cc1cc(C(=O)NC2CCN(C(=O)CCl)CC2)no1"
  Label Class: "inactive"
- Molecule: "O=C(CCl)Nc1nc(-c2cccs2)cs1"
  Label Class: "inactive"
- Molecule: "NC(=O)C1CCCCN1C(=O)CCl (stereo unspecified)"
  Label Class: "inactive"
- Molecule: "Cl.Cn1nccc1C(NC(=O)CCl)c1ccccc1 (stereo unspecified)"
  Label Class: "inactive"
- Molecule: "Cl.Cn1cnc2cc(CNC(=O)CCl)ccc21"
  Label Class: "inactive"

Now look at this one.
Fill in: this test's call for O=C(CCl)N1CCCC1c1ccsc1 (stereo unspecified) is ___ inactive
